# System under test: HIV-1 integrase (wild-type IN) (Human immunodeficiency virus type 1 group M subtype B)
# Method notes: HIV-1 integrase strand transfer assay (32P-labeled 21-mer, gel)
# Type: biochemical
# Condition label: unit inferred; read-out: IN inhibition activity Strand transfer
pIC50: −log10 of the molar value.
# key: entry, value: pIC50
Property measured: pIC50

{"Compound": "O=C(Cc1ccc(F)cc1)N/N=C/c1ccc(-c2ccc(Cl)c(C(=O)O)c2)o1", "System under test": "HIV-1 integrase (wild-type IN) (Human immunodeficiency virus type 1 group M subtype B)", "Readout qualifier": "<", "Reported value": 4.00}
{"Compound": "O=C(O)c1cccc(-c2ccc(/C=N/Nc3nc4nonc4nc3Nc3ccc(F)cc3)o2)c1", "System under test": "HIV-1 integrase (wild-type IN) (Human immunodeficiency virus type 1 group M subtype B)", "Readout qualifier": "=", "Reported value": 5.40}
{"Compound": "Cc1cc2nc3s/c(=C\\c4ccc(-c5cccc(C(=O)O)c5)o4)c(=O)n3c2cc1C", "System under test": "HIV-1 integrase (wild-type IN) (Human immunodeficiency virus type 1 group M subtype B)", "Readout qualifier": "<", "Reported value": 4.00}
{"Compound": "COc1ccc(C2C(C(=O)c3ccc(Br)cc3)=C(O)C(=O)N2c2cc(C(C)(C)C)on2)cc1OC (centres unmarked)", "System under test": "HIV-1 integrase (wild-type IN) (Human immunodeficiency virus type 1 group M subtype B)", "Readout qualifier": "=", "Reported value": 4.37}
{"Compound": "COc1ccc(OC)c(C2C(C(=O)c3ccc(Cl)cc3)=C(O)C(=O)N2CCCCCC(=O)O)c1 (centres unmarked)", "System under test": "HIV-1 integrase (wild-type IN) (Human immunodeficiency virus type 1 group M subtype B)", "Readout qualifier": "=", "Reported value": 4.40}
{"Compound": "CCOc1ccc(C(=O)C2=C(O)C(=O)N(c3nccs3)C2c2ccc(O)c(OC)c2)cc1 (centres unmarked)", "System under test": "HIV-1 integrase (wild-type IN) (Human immunodeficiency virus type 1 group M subtype B)", "Readout qualifier": "=", "Reported value": 4.52}
{"Compound": "COc1ccc(-n2c(Cc3ccccc3)nnc2SCC(=O)NNC(=O)c2ccccc2O)cc1", "System under test": "HIV-1 integrase (wild-type IN) (Human immunodeficiency virus type 1 group M subtype B)", "Readout qualifier": "=", "Reported value": 4.77}
{"Compound": "Cc1ccc(C(=O)C2=C(O)C(=O)N(c3nccs3)C2c2ccc(Cl)cc2)cc1 (centres unmarked)", "System under test": "HIV-1 integrase (wild-type IN) (Human immunodeficiency virus type 1 group M subtype B)", "Readout qualifier": "=", "Reported value": 4.41}

---

# System under test: UniProt:P12497
# Method notes: HIV-1 integrase strand transfer assay (32P-labeled 21-mer, gel)
# Assay type: biochemical
# Condition label: unit inferred; read-out: HIV-1 IN Inhibitory Activities Strand transfer
# key: entry, value: log10(IC50)
Property measured: log10(IC50) (log10 of the value in µM)

{"Compound": "COc1ccc(CCNC(=O)CC(=O)N/N=C/c2ccco2)cc1OC", "Reported value": 1.95}
{"Compound": "O=C(COc1ccccc1[N+](=O)[O-])Nc1ccc(O)c(-c2nc3ccccc3s2)c1", "Reported value": 1.90}
{"Compound": "O=C(N/N=C/c1cc(Br)ccc1O)/C(=C/C=C/c1ccccc1)NC(=O)c1ccccc1", "Reported value": 1.36}
{"Compound": "COc1ccc(C2C(C(=O)c3ccco3)=C(O)C(=O)N2CCN2CCOCC2)c(OC)c1 (centres unmarked)", "Reported value": 2.60}
{"Compound": "COc1ccc2oc(=O)c(-c3csc(N/N=C/c4ccccc4O)n3)cc2c1", "Reported value": 1.00}
{"Compound": "Cc1c(C(c2ccc(O)c(O)c2)c2c(C)n(C)n(-c3ccccc3)c2=O)c(=O)n(-c2ccccc2)n1C", "Reported value": 1.49}
{"Compound": "O=C(Nc1cc(C(=O)Nc2ccccc2C(=O)O)cc(C(=O)Nc2ccccc2C(=O)O)c1)c1ccccc1", "Reported value": 1.30}
